Assay: in vivo
Settings: Sprague-Dawley, rat, po, 39.2 g/kg/day, AUC 0-∞, MG group: AIA rats, saline 21 days, then oral SM 39.2 g crude drug/kg, plasma, mean ± SEM
result.type: AUC(0-inf) (ng·h/mL)

>>> test_result("O=C1C[C@@H](c2ccc(O[C@@H]3O[C@H](CO)[C@@H](O)[C@H](O)[C@H]3O)cc2)Oc2cc(O)ccc21")
307
>>> test_result("CN[C@@H](C)[C@H](O)c1ccccc1")
1750
>>> test_result("COc1ccc(-c2coc3cc(O)ccc3c2=O)cc1O")
14.3

====

Assay: in vivo
Settings: Sprague-Dawley, rat, po, 39.2 g/kg/day, t 1/2, MPS group: AIA rats, oral PS 9.8 g crude drug/kg/day 21 days, then oral SM 39.2 g crude drug/kg, plasma, mean ± SEM
result.type: half-life

>>> test_result("COc1ccc(-c2coc3cc(O)ccc3c2=O)cc1O")
"3.53 h"
>>> test_result("O=C1C[C@@H](c2ccc(O[C@@H]3O[C@H](CO)[C@@H](O)[C@H](O)[C@H]3O)cc2)Oc2cc(O)ccc21")
"3.3 h"
>>> test_result("O=C(/C=C/c1ccc(O[C@@H]2O[C@H](CO)[C@@H](O)[C@H](O)[C@H]2O)cc1)c1ccc(O)cc1O")
"7.61 h"
>>> test_result("CN[C@@H](C)[C@H](O)c1ccccc1")
"1.74 h"
>>> test_result("C[C@@]12C[C@@]3(O)O[C@@H](O1)[C@]1(COC(=O)c4ccccc4)[C@H]3C[C@@]12O[C@@H]1O[C@H](CO)[C@@H](O)[C@H](O)[C@H]1O")
"1.99 h"
>>> test_result("C[C@@]12C[C@@]3(O)O[C@@H](O1)[C@]1(COC(=O)c4ccccc4)[C@H]3C[C@@]12O[C@@H]1O[C@H](COC(=O)c2ccccc2)[C@@H](O)[C@H](O)[C@H]1O")
"6.96 h"
